Molecular target: human JAK1 (a.a. 837-1142)
Test: In vitro JAK kinase assay (HTRF, phosphorylation of a biotinylated peptide), JAK1
Type: biochemical
Conditions: measured at 1 mM ATP; JAK2 IC50 / JAK1 IC50
assay-endpoint: IC50 Ratio JAK2/JAK1

N#CCC1(n2cc(-c3ncnc4[nH]ccc34)cn2)CN(C2CCN(C(=O)OCc3ccc(F)cc3F)CC2)C1	7.1
N#CCC1(n2cc(-c3c(F)cnc4[nH]ccc34)cn2)CN(C2CCN(C(=O)Nc3ncccc3C(F)(F)F)CC2)C1	4.5
N#CCC1(n2cc(-c3c(F)cnc4[nH]ccc34)cn2)CN(C2CCN(C(=O)c3c(F)cncc3F)CC2)C1	3.0
N#CCC1(n2cc(-c3ncnc4[nH]ccc34)cn2)CN(C2CCN(C(=O)c3ccc(-c4nc5ccccc5o4)cc3)CC2)C1	5.6

[1] Cc1ncccc1NC(=O)N1CCC(N2CC(CC#N)(n3cc(-c4ncnc5[nH]ccc45)cn3)C2)CC1
[2] N#CCC1(n2cc(-c3ncnc4[nH]ccc34)cn2)CN(C2CCN(Cc3cc4ccccc4nc3Cl)CC2)C1
Lower value for measured IC50 Ratio JAK2/JAK1? Options: 1 , 2 Let me know the label of the one you choose.
2
(2: 2.5, 1: 4.4)

[I] N#CCC1(n2cc(-c3ncnc4[nH]ccc34)cn2)CN(C2CCN(C(=O)Nc3cccc(C(F)(F)F)c3F)CC2)C1
[II] COc1cccc(F)c1C(=O)N1CCC(N2CC(CC#N)(n3cc(-c4ncnc5[nH]ccc45)cn3)C2)CC1
[III] N#CCC1(n2cc(-c3c(F)cnc4[nH]ccc34)cn2)CN(C2CCN(C(=O)c3cc(C(F)(F)F)ncc3Cl)CC2)C1
# rank_down: sort by IC50 Ratio JAK2/JAK1, max first Response format: the labels, sorted as the prompt asks.
I, II, III
(I: 6.9, II: 3.2, III: 1.7)
